For each record, write down the corresponding TGI.
# System: SK-MEL-28 melanoma
# protocolDescription: NCI tumour cell line growth inhibition, 48 h

// below: answered compounds
Cc1cccc(Cl)c1NC(N)=S ... > 100 µM
COc1cc(C(C#N)NNC(=O)Cc2ccccc2)cc(OC)c1OC (stereo unspecified) ... > 100 µM

Batch request: TGI for each of the following compounds.
1. CCc1nc(-n2c(CC)nc3ccccc3c2=O)nc(N)c1-c1ccc(Cl)cc1
2. O=S(=O)(O)c1cc(N=Nc2cc(S(=O)(=O)O)c3ccccc3c2O)ccc1/C=C/c1ccc(N=Nc2cc(S(=O)(=O)O)c3ccccc3c2O)cc1S(=O)(=O)O
3. C/C=C/C(=O)[C@@H](O)C(C)C
4. O=C(c1ccco1)c1ccccc1C(=O)c1ccco1
5. COc1ccc(C2C3=C(COC3=O)OC(C)(C)Oc3cc4c(cc32)OCO4)cc1 (stereo unspecified)
6. CCCCNC(=O)OCC(COc1ccccc1OC)OC(=O)NCCCC (stereo unspecified)
7. COC(=O)c1ccc(/C=C2\Cc3ccccc3C2=O)cc1
8. O=S(Nc1ccccc1)c1ccc(-c2ccccc2)cc1 (stereo unspecified)

Response:
1: > 100 µM; 2: > 1000 µM; 3: > 100 µM; 4: > 100 µM; 5: > 100 µM; 6: > 100 µM; 7: > 100 µM; 8: > 100 µM

Batch request: TGI for each of the following compounds.
1. COc1cc2c(cc1O)[C@H](C)C(c1ccccc1OC)O2 (stereo partly specified)
2. CC1=CSC(O)(c2ccc(Cl)cc2)c2noc(=O)n21 (stereo unspecified)
3. Nc1c(S(=O)(=O)O)cc(Nc2cccc(S(N)(=O)=O)c2)c2c1C(=O)c1ccccc1C2=O
4. COc1cccc(CCn2c(N)c(C(=O)O)c3ccc([N+](=O)[O-])cc3c2=O)c1
5. CC(C)[C@](O)(C(=O)OCC1=CC[N+]2([O-])CC[C@@H](O)[C@@H]12)[C@H](C)O (stereo partly specified)
6. CCOC(=O)NC(Nc1ccc(F)c(F)c1)(C(=O)OCC)C(F)(F)F (stereo unspecified)

Response:
1: > 100 µM; 2: > 100 µM; 3: > 100 µM; 4: > 100 µM; 5: > 10000 µM; 6: > 100 µM

Batch request: TGI for each of the following compounds.
1. Cc1ccc(/C=C/C(=O)C(C)C)cc1
2. CN1CCC(C(=O)NNc2ccccc2)CC1
3. Cc1cc(Cl)ccc1NC(=O)C(=O)Cc1ccc([N+](=O)[O-])c([N+](=O)[O-])c1CC(=O)C(=O)Nc1ccc(Cl)cc1C

Response:
> 100 µM
> 88.1 µM
> 100 µM

Batch request: TGI for each of the following compounds.
1. COc1cc2c(cc1OC)C(=O)Cc1ccc3c(c1CNCC2)OCO3
2. CCOC(=O)CCC(NC(=O)c1ccc(Nc2cnc3cc(C(F)(F)F)ccc3n2)cc1)C(=O)OCC (stereo unspecified)

Response:
["> 100 µM", "> 100 µM"]

====

# Test system: SK-MEL-2 melanoma
# protocolDescription: NCI tumour cell line growth inhibition, 48 h
For each record, write down the corresponding TGI.

// below: answered compounds
Nc1ccc(C(=O)NN2C(=O)C(Cl)C2c2cc(Br)cc(Br)c2O)cc1 (stereo not drawn) ... > 100 µM
O=C1NC2(CCCC2)/C(=N\O)C12CCCC2 ... > 100 µM

Consider the additional compound presented here.
Query: Quick one: TGI of CCN(CC)C(=S)SC(=S)N(CC)CC ?
Response: > 100 µM
